# assay target: UniProtKB P35916
# Sequence (P35916 whole entry): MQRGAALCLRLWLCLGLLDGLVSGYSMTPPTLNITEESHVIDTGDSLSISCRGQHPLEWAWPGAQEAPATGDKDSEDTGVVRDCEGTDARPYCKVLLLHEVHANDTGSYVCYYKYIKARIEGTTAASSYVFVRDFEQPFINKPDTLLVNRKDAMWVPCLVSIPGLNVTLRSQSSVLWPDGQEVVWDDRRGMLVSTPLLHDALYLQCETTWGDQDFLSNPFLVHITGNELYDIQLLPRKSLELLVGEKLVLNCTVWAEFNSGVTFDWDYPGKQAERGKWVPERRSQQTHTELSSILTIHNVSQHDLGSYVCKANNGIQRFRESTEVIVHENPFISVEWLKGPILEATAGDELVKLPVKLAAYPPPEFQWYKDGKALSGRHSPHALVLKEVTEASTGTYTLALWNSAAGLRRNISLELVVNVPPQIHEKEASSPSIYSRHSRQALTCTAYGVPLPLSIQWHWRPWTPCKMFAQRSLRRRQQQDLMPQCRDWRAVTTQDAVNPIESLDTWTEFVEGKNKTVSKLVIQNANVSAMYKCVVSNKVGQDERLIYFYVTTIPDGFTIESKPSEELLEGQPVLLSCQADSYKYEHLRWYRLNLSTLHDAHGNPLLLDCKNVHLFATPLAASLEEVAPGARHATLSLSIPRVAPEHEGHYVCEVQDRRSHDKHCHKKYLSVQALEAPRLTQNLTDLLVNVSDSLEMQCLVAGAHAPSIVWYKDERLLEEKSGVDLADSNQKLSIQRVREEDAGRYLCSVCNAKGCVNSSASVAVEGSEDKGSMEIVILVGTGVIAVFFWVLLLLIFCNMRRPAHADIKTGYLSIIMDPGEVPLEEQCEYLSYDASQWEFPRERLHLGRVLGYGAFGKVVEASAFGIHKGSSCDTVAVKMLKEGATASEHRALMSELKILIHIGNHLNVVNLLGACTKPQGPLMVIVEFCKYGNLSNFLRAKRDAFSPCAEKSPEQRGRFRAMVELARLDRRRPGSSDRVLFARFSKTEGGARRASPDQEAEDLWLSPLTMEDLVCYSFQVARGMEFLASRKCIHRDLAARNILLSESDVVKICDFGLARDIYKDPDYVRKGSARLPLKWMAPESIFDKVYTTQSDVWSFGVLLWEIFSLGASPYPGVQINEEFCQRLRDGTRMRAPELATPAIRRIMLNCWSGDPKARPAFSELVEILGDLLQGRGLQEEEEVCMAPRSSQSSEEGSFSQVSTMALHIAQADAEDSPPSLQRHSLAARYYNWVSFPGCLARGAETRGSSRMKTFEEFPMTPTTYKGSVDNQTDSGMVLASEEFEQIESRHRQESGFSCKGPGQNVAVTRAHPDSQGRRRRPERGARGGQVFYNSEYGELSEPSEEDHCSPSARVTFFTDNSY
measured metric: pIC50
Just so you know, pIC50 here is -log10 of the concentration in molar units; reply with that number alone.

Tell me reported pIC50 for `CCCNC(=O)c1cc(Oc2ccc(NC(=O)c3cc4cccnc4n(-c4ccc(F)cc4)c3=O)cc2)ccn1` , tested with UniProtKB P35916.
7.63

* * *

# System: U-87 MG
# experimental details: Antiproliferative activity against human U87MG cells after 72 hrs by MTT assay
# Assay type: functional, cell-based, U-87MG ATCC
API: label(entry) gives 1.0 if the entry's IC50 is strictly smaller than 4 µM; on equality or larger values it gives 0.0.

CCCNC(=O)c1cc(Oc2ccc(NC(=O)c3cc4cccnc4n(-c4ccc(Br)cc4)c3=O)cc2)ccn1	0.0
CCCNC(=O)c1cc(Oc2ccc(NC(=O)c3cc4cccnc4n(-c4ccc(F)cc4)c3=O)cc2)ccn1	1.0
CNC(=O)c1cc(Oc2ccc(NC(=O)c3cc4cccnc4n(-c4ccccc4F)c3=O)cc2)ccn1	1.0

Item `CCCNC(=O)c1cc(Oc2ccc(NC(=O)c3cc4cccnc4n(-c4ccc(F)c(Cl)c4)c3=O)cc2)ccn1` : IC50 beneath 4 µM, strictly?
1.0
